Could you please report measured pKi for the items listed next?
biological target: 5-hydroxytryptamine receptor 7 (Homo sapiens); assay: biochemical
Sequence (P34969 whole entry): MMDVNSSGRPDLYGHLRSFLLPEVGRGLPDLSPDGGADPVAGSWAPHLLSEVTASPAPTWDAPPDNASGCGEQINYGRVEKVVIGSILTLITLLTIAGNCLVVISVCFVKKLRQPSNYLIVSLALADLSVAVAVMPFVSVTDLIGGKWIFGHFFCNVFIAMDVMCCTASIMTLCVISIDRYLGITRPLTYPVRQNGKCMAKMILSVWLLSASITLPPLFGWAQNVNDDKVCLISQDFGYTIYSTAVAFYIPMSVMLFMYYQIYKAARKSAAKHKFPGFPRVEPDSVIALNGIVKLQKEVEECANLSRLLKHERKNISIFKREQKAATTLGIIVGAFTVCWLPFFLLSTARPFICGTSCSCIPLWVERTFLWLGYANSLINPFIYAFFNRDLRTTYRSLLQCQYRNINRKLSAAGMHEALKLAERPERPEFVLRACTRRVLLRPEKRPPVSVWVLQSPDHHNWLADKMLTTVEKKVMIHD
In simple prose, pKi is minus the logarithm base ten of a concentration in moles per litre.

Query: State its pKi on 5-hydroxytryptamine receptor 7 (Homo sapiens): `O=S(=O)(NCCCCN1CCN(c2cccc(Cl)c2Cl)CC1)c1cnc2ccccc2c1`
Response: 7.52

Query: State its pKi on 5-hydroxytryptamine receptor 7 (Homo sapiens): `O=S(=O)(NCCCCN1CCN(c2cccc(Cl)c2Cl)CC1)c1cncc2ccccc12`
Response: 7.68

Query: State its pKi on 5-hydroxytryptamine receptor 7 (Homo sapiens): `O=S(=O)(NCCCCN1CCN(c2cccc(Cl)c2Cl)CC1)c1ccc2ncccc2c1`
Response: 6.91

Query: State its pKi on 5-hydroxytryptamine receptor 7 (Homo sapiens): `O=S(=O)(NCCCN1CCN(c2cccc(Cl)c2Cl)CC1)c1cnc2ccc(Cl)cc2c1`
Response: 7.34

Query: State its pKi on 5-hydroxytryptamine receptor 7 (Homo sapiens): `O=S(=O)(NCCCN1CCN(c2cccc(Cl)c2Cl)CC1)c1ccc2ncccc2c1`
Response: 7.51

Query: State its pKi on 5-hydroxytryptamine receptor 7 (Homo sapiens): `O=S(=O)(NCCCCN1CCN(c2cccc(Cl)c2Cl)CC1)c1cnc2ccc(Cl)cc2c1`
Response: 7.39

Query: State its pKi on 5-hydroxytryptamine receptor 7 (Homo sapiens): `O=S(=O)(NCCCCN1CCN(c2cccc(Cl)c2Cl)CC1)c1cccc2cccnc12`
Response: 7.57

====

target: D(3) dopamine receptor (Homo sapiens) (UniProt P35462); experiment: Displacement of [3H]-methylspiperone from human dopamine D3 receptor expressed in HEK293 at 10^-6 M after 1 hr; format: cell-based
Sequence (P35462 whole entry): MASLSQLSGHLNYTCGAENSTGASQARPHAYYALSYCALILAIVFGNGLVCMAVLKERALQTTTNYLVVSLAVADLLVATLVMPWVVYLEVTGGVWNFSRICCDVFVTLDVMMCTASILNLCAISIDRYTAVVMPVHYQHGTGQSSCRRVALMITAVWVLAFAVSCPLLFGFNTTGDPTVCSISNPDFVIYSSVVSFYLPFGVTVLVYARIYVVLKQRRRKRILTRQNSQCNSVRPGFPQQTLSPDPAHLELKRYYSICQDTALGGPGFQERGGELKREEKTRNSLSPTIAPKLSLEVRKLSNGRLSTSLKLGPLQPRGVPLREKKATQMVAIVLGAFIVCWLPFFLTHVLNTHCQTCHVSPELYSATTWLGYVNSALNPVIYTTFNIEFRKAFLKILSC
Could you please report measured inhibition for the items listed next?
Provide the reading as a plain figure in %.

Query: For the molecule shown here, `O=S(=O)(NCCCCN1CCN(c2cccc(Cl)c2Cl)CC1)c1cc2ccccc2cn1` , give the reported inhibition.
Response: 98

Query: For the molecule shown here, `O=S(=O)(NCCCCN1CCN(c2cccc(Cl)c2Cl)CC1)c1cnc2ccccc2c1` , give the reported inhibition.
Response: 99

Query: For the molecule shown here, `O=S(=O)(NCCCN1CCN(c2cccc(Cl)c2Cl)CC1)c1ccc2cccnc2c1` , give the reported inhibition.
Response: 99

Query: For the molecule shown here, `O=S(=O)(NCCCCN1CCN(c2cccc(Cl)c2Cl)CC1)c1ccc2cccnc2c1` , give the reported inhibition.
Response: 101

Query: For the molecule shown here, `O=S(=O)(NCCCCN1CCN(c2cccc(Cl)c2Cl)CC1)c1cncc2ccccc12` , give the reported inhibition.
Response: 95

====

measurement label: pIC50
In simple prose, pIC50 is minus the logarithm base ten of a concentration in moles per litre.

Query: State its pIC50 on 5-hydroxytryptamine receptor 7 (Homo sapiens): CSc1ccc2c(c1)C(CCN)=CC2 [METHIOTHEPINE]
Response: 8.66

Query: State its pIC50 on 5-hydroxytryptamine receptor 7 (Homo sapiens): `O=S(=O)(NCCCCN1CCN(c2cccc(Cl)c2Cl)CC1)c1ccc2cccnc2c1`
Response: 5.42

Query: State its pIC50 on 5-hydroxytryptamine receptor 7 (Homo sapiens): `O=S(=O)(NCCCN1CCN(c2cccc(Cl)c2Cl)CC1)c1ccc2cccnc2c1`
Response: 5.55

Query: State its pIC50 on 5-hydroxytryptamine receptor 7 (Homo sapiens): `O=S(=O)(NCCCCN1CCN(c2cccc(Cl)c2Cl)CC1)c1cncc2ccccc12`
Response: 6.09

====

Could you please report measured Ki for the items listed next?
Provide the reading as a plain figure in nM.

Query: State its Ki on Adrenergic receptor alpha-1 (Rattus norvegicus, UniProt P15823+P23944+P43140): `O=S(=O)(NCCCN1CCN(c2cccc(Cl)c2Cl)CC1)c1ccc2cccnc2c1`
Response: 186

Query: State its Ki on Adrenergic receptor alpha-1 (Rattus norvegicus, UniProt P15823+P23944+P43140): `O=S(=O)(NCCCCN1CCN(c2cccc(Cl)c2Cl)CC1)c1cnc2ccccc2c1`
Response: 170

Query: State its Ki on Adrenergic receptor alpha-1 (Rattus norvegicus, UniProt P15823+P23944+P43140): `O=S(=O)(NCCCCN1CCN(c2cccc(Cl)c2Cl)CC1)c1cc2ccccc2cn1`
Response: 255

Query: State its Ki on Adrenergic receptor alpha-1 (Rattus norvegicus, UniProt P15823+P23944+P43140): `O=S(=O)(NCCCCN1CCN(c2cccc(Cl)c2Cl)CC1)c1cncc2ccccc12`
Response: 160

Query: State its Ki on Adrenergic receptor alpha-1 (Rattus norvegicus, UniProt P15823+P23944+P43140): `O=S(=O)(NCCCCN1CCN(c2cccc(Cl)c2Cl)CC1)c1ccc2cccnc2c1`
Response: 136

====

Reported values: log10(EC50) for 5-hydroxytryptamine receptor 1A (Homo sapiens, UniProt P08908), one per item.
Short version: log10 scale, EC50, µM.

Query: For the compound shown here, `O=S(=O)(NCCCCN1CCN(c2cccc(Cl)c2Cl)CC1)c1cnc2ccccc2c1` , give the reported log10(EC50).
Response: 0.22

Query: For the compound shown here, `O=S(=O)(NCCCCN1CCN(c2cccc(Cl)c2Cl)CC1)c1cc2ccccc2cn1` , give the reported log10(EC50).
Response: 1.19

Query: For the compound shown here, `O=S(=O)(NCCCN1CCN(c2cccc(Cl)c2Cl)CC1)c1ccc2cccnc2c1` , give the reported log10(EC50).
Response: 0.87

Query: For the compound shown here, `O=S(=O)(NCCCCN1CCN(c2cccc(Cl)c2Cl)CC1)c1ccc2cccnc2c1` , give the reported log10(EC50).
Response: -0.06

Query: For the compound shown here, `O=S(=O)(NCCCCN1CCN(c2cccc(Cl)c2Cl)CC1)c1cncc2ccccc12` , give the reported log10(EC50).
Response: 1.18

====

Could you please report measured inhibition for the items listed next?
molecular target: D(3) dopamine receptor (Homo sapiens) (UniProt P35462); experiment: Displacement of [3H]-methylspiperone from human dopamine D3 receptor expressed in HEK293 at 10^-7 M after 1 hr; type: cell-based
Provide the reading as a plain figure in %.

Query: For the compound shown here, `O=S(=O)(NCCCN1CCN(c2cccc(Cl)c2Cl)CC1)c1ccc2cccnc2c1` , give the reported inhibition.
Response: 90

Query: For the compound shown here, `O=S(=O)(NCCCCN1CCN(c2cccc(Cl)c2Cl)CC1)c1cncc2ccccc12` , give the reported inhibition.
Response: 93

Query: For the compound shown here, `O=S(=O)(NCCCCN1CCN(c2cccc(Cl)c2Cl)CC1)c1cc2ccccc2cn1` , give the reported inhibition.
Response: 95

Query: For the compound shown here, `O=S(=O)(NCCCCN1CCN(c2cccc(Cl)c2Cl)CC1)c1cnc2ccccc2c1` , give the reported inhibition.
Response: 94

Query: For the compound shown here, `O=S(=O)(NCCCCN1CCN(c2cccc(Cl)c2Cl)CC1)c1ccc2cccnc2c1` , give the reported inhibition.
Response: 99

====

measurement label: pKi
In simple prose, pKi is minus the logarithm base ten of a concentration in moles per litre.

Query: State its pKi on 5-hydroxytryptamine receptor 6 (Homo sapiens, UniProt P50406): `O=S(=O)(NCCCCN1CCN(c2cccc(Cl)c2Cl)CC1)c1cc2ccccc2cn1`
Sequence (P50406 whole entry): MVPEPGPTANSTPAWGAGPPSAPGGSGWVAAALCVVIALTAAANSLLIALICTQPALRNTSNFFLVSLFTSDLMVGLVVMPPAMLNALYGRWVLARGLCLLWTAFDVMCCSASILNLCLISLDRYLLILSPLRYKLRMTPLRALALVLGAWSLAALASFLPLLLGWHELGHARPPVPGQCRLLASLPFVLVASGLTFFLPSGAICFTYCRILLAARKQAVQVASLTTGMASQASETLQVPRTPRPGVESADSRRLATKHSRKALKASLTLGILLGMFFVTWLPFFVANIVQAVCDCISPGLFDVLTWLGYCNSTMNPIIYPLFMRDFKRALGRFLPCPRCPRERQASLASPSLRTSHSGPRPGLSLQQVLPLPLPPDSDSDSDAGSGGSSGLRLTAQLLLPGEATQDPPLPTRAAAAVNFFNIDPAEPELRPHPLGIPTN
Response: 6.34

Query: State its pKi on 5-hydroxytryptamine receptor 6 (Homo sapiens, UniProt P50406): `O=S(=O)(NCCCN1CCN(c2cccc(Cl)c2Cl)CC1)c1ccc2cccnc2c1`
Response: 6.59

Query: State its pKi on 5-hydroxytryptamine receptor 6 (Homo sapiens, UniProt P50406): `O=S(=O)(NCCCCN1CCN(c2cccc(Cl)c2Cl)CC1)c1ccc2cccnc2c1`
Response: 6.52

====

Reported values: pKi for Sodium-dependent serotonin transporter (Rattus norvegicus), one per item.
In simple prose, pKi is minus the logarithm base ten of a concentration in moles per litre.

Query: State its pKi on Sodium-dependent serotonin transporter (Rattus norvegicus): `O=S(=O)(NCCCCN1CCN(c2cccc(Cl)c2Cl)CC1)c1ccc2cccnc2c1`
Sequence (P31652 whole entry): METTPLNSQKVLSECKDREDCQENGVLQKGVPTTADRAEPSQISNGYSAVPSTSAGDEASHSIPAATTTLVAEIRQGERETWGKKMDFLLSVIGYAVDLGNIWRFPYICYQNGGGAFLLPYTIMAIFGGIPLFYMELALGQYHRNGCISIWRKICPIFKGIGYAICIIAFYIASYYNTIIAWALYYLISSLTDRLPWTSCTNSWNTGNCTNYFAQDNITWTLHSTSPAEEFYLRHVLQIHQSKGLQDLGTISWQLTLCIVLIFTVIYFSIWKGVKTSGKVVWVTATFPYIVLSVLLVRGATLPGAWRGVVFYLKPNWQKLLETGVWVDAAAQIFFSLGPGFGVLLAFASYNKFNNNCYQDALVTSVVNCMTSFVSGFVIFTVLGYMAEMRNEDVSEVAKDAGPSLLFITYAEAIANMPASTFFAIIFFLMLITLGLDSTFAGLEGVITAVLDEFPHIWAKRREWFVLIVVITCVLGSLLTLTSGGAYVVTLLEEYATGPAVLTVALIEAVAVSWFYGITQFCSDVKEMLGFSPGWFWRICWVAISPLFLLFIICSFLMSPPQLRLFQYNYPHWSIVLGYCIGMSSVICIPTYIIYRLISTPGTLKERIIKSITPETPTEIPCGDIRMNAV
Response: 6.10

Query: State its pKi on Sodium-dependent serotonin transporter (Rattus norvegicus): `O=S(=O)(NCCCCN1CCN(c2cccc(Cl)c2Cl)CC1)c1cc2ccccc2cn1`
Response: 6.47

Query: State its pKi on Sodium-dependent serotonin transporter (Rattus norvegicus): `O=S(=O)(NCCCCN1CCN(c2cccc(Cl)c2Cl)CC1)c1cncc2ccccc12`
Response: 6.11

====

molecular target: 5-hydroxytryptamine receptor 6 (Homo sapiens); experiment: biochemical
Description: Displacement of [3H]-LSD from human 5HT6 receptor expressed in HEK293 after 1 hr
Could you please report measured Ki for the items listed next?
Provide the reading as a plain figure in µM.

Query: For the compound shown here, `O=S(=O)(NCCCCN1CCN(c2cccc(Cl)c2Cl)CC1)c1ccc2ncccc2c1` , give the reported Ki.
Response: 0.484

Query: For the compound shown here, `O=S(=O)(NCCCN1CCN(c2cccc(Cl)c2Cl)CC1)c1cnc2ccc(Cl)cc2c1` , give the reported Ki.
Response: 0.901

Query: For the compound shown here, `O=S(=O)(NCCCCN1CCN(c2cccc(Cl)c2Cl)CC1)c1cnc2ccc(Cl)cc2c1` , give the reported Ki.
Response: 0.555

Query: For the compound shown here, `O=S(=O)(NCCCCN1CCN(c2cccc(Cl)c2Cl)CC1)c1cncc2ccccc12` , give the reported Ki.
Response: 0.22

Query: For the compound shown here, `O=S(=O)(NCCCCN1CCN(c2cccc(Cl)c2Cl)CC1)c1cnc2ccccc2c1` , give the reported Ki.
Response: 1.33

Query: For the compound shown here, `O=S(=O)(NCCCN1CCN(c2cccc(Cl)c2Cl)CC1)c1ccc2ncccc2c1` , give the reported Ki.
Response: 0.326

Query: For the compound shown here, `O=S(=O)(NCCCCN1CCN(c2cccc(Cl)c2Cl)CC1)c1cccc2cccnc12` , give the reported Ki.
Response: 0.598
